B1: library; numbered along this chain (parent)
chain: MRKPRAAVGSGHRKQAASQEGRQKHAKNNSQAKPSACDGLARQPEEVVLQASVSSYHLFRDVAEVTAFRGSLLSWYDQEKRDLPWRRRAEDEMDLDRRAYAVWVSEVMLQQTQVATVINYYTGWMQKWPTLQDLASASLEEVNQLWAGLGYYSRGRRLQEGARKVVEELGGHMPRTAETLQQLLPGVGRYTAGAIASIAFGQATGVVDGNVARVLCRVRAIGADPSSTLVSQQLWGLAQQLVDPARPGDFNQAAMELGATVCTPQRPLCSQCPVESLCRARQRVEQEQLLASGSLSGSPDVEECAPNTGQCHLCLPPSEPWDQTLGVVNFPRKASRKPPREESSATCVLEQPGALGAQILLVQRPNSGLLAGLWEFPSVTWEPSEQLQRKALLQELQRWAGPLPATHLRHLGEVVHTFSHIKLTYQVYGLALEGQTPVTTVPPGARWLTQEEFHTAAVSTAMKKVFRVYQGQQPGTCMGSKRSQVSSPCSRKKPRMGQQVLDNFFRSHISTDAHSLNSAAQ

# Variants of: B1
# Assay Method Text: 8OG:A repair function score (normalized; synonymous = 0, nonsense = -1) (normalized log-likelihood score); higher = more repair activity (WT-like);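 further: cells sorted at 72 h after reporter transfection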
# Condition Details: with 8OG:A DNA repair reporter (GFP) in HEK-293 MUTYH KO cells
Parameter: 8OG:A repair function score. Scope: all listed entries.
Readout: 8OG:A repair function score

Variant	Obs Value
S270F	-0.0287
G148N	-0.669
G429E	-0.296
E106N	-1.72
Q252W	-1.04
L361M	0.0584
W381N	0.268
P267I	-0.711
L360I	-0.403
K493R	-0.00709
A115V	0.00984
E433R	0.0685
S367N	0.179
S296A	-0.0202
G258T	-1.21
Y152Q	-0.592
Y152M	-0.3
R219C	-0.563
E452K	-0.211
L234A	-0.833
N329C	-0.102
F200Y	0.0681
L241N	-0.946
W85S	-1.22
Q498L	-0.00389
A305H	-0.0126
R86K	-0.756
P437V	-0.0519
A400C	-0.215
M125V	-0.308
R175N	-0.0345
R2F	0.0866
H172C	-0.0393
F330C	-0.248
K164F	0.104
D133W	-0.988
V47M	-0.0812
C216S	-0.137
F68R	-1.29
A223K	-0.118
P317I	-0.0482
Q182K	0.129
L58I	-0.00475
S344M	0.0335
Q265W	-0.0937
P247C	-0.799

Ref: the supplement of paper PMC11908140
